Attribution: patent US4629737A

assay: Effect on energy expenditure of mice
Assay type: in vivo, Female CFLP mice
condition-summary: Mus musculus, po, 21 h, read-out: Mean Energy Expenditure (0-21 h)
Where a name gives a salt, the structure may show the parent alone.
parameter: response vs control in vivo at 22.1 mg/kg (%)
Give just the number in %; leave the unit off.

| compound | obs-value |
| --- | --- |
| COC(=O)CN(C)c1ccc(CC(C)NCC(OC)c2ccccc2)cc1 (stereo not shown) [Example 58, dihydrochloride] | 108 |
| CCOC(CNC(C)Cc1ccc(OCC(=O)OC)cc1)c1cccc(Cl)c1 (stereo not shown) [Example 3, hydrochloride] | 116 |
| COC(CNC(C)Cc1ccc(OCC(=O)N(C)C)cc1)c1cccc(Cl)c1 (stereo not shown) [Example 19, hydrochloride] | 139 |

Shift focus to the following entry.
// query response vs control in vivo at 22.1 mg/kg value for entry CCOC(CNC(C)Cc1ccc(OCC(=O)NC)cc1)c1cccc(Cl)c1 (stereo not shown) [Example 16, hydrochloride]
126
